Tested on: RXRa DBDmut IVT, anti-RXR (DBD mutation: RXRa K156A/R161A, NR concentration 90 nM)
Test: PBM binding z-score (relative to random genomic background probes); higher = stronger binding; sequences stand for … in GC…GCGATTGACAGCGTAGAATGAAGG
Decide by PBM binding z-score: equal to or exceeding 1 means label 1, less means label 0.

sequence.code: GCAGACGGGTGAAACGCAGGTAACTCAGGGTGGC
class: label 0
--
sequence.code: GCTGCTCGGTCAGGTTGGTCAGCTAACGGGTACG
class: label 0
--
sequence.code: GCTGCTAGGTCAGGTTGGTCAGGTAACGGGTACG
class: label 0
--
sequence.code: ATCGAAAGGTCGAAGGTGAGGATACCCACCCGAA
class: label 0
--
sequence.code: CATACAGGGTCAGCTAGGCCAGATTAGGGACGGC
class: label 1
--
sequence.code: ACTAGCAGTCCAAGTTTGGGTCACTCAAACAAAG
class: label 0
--
sequence.code: CCTAGTTGGTCAAGGTCATACACGCTATAGGTAC
class: label 1
--
sequence.code: AGTCAAAGTTCAGGACTAGGTAACGTAAAGCACG
class: label 1
--
sequence.code: ATAGAAAGGTCGTGAGGTGAGTATACAGAAAGGC
class: label 1
--
sequence.code: CAAACTAGGTCACGAAAGGTCACAGTCGAATGAC
class: label 1
--
sequence.code: GTATATAGGTAATACAAGGTGAAAGTCCGATTGT
class: label 0
--
sequence.code: TTAACAAGGTGAAGGTCGTTGATCCCTCTGTAGA
class: label 0
